Test system: Macaca fascicularis PRLR (mfPRLR.mmh; SEQ ID NO:403)
Sequence (as listed by the source): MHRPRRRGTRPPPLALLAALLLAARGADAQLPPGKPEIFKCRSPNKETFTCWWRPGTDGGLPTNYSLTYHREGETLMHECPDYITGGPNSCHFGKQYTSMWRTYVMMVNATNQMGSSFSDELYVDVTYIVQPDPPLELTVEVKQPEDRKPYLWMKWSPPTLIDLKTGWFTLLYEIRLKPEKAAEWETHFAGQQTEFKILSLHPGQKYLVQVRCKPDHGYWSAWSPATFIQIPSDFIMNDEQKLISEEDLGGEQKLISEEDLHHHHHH
experimentNotes: Surface plasmon resonance (Biacore T200), antibody-capture format
Assay type: binding
appliedConditions: 37° C., analyte mfPRLR.mmh
Protocol: Antibodies, expressed as human IgG1 Fc (i.e., “H1H” designations), were captured onto an anti-human Fc sensor surface (mAb-capture format), and soluble monomeric (hPRLR.mmh; SEQ ID NO:401, or Macaca fascicularis (mf) PRLR.mmh; SEQ ID NO:403) or dimeric (hPRLR.mFc; SEQ ID NO:402) PRLR protein was injected over the sensor surface. Measurements were conducted on a T200 Biacore instrument. […]
Entries and their measured ka follow.
Value expressed in M/s; do not type the unit.

molecule	ka [M/s]
H1H6793P: fully human anti-PRLR antibody, human IgG1 Fc; HCVR/LCVR SEQ ID NOs 146/154 (antibody, V domains shown) VH: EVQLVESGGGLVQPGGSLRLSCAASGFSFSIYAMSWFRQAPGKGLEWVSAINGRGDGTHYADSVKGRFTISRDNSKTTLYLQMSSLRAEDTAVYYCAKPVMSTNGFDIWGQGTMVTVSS VL: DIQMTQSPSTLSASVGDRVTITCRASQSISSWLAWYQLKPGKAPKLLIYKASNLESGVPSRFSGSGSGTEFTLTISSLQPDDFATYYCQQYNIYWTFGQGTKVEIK	233000

Consider the additional molecule presented here.
Specify measured ka for H1H6792P: fully human anti-PRLR antibody, human IgG1 Fc; HCVR/LCVR SEQ ID NOs 130/138 (antibody, V domains shown) VH: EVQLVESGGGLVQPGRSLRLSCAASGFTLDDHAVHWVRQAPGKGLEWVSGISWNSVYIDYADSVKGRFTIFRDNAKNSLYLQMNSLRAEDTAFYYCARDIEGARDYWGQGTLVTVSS VL: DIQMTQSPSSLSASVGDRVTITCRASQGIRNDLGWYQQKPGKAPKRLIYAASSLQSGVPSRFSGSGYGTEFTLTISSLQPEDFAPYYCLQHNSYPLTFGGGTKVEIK . 305000

Attribution: patent US10925971B2
